ASSAYED SYSTEM: ZNF239 (UniProt Q16600)
Sequence (Q16600 whole entry, looked up): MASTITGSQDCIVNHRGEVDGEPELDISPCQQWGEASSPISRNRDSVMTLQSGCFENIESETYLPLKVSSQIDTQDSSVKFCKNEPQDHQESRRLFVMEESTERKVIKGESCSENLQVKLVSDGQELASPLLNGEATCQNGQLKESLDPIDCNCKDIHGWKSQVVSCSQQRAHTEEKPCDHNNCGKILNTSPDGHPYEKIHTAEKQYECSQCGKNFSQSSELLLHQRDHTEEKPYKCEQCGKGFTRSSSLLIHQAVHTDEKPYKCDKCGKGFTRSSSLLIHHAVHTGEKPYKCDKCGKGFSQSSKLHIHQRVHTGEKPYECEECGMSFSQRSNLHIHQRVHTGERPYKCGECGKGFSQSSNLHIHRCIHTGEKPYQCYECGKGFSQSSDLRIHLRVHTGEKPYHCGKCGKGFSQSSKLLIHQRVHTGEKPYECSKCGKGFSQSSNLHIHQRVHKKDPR
TEST DESCRIPTION: log2 fold change, soluble protein after heating vs DMSO (PISA); higher = thermal stabilisation; K562 cells, 10 uM, 30 min; active = over 0.2 and 3.5 SD of the protein, either way, in both replicates (recomputed)
Of roughly 7,900 targets only a part is listed; those with a hit were picked by preference. About 0.6% of all pairs of compound and target were hits.
# log2 fold change >= 0.01 gives criterion met, anything below gives criterion not met

Prompt: Entry `O=C(O)c1ccc2c(c1)nc(Nc1cccc(Cl)c1)c1ccncc12` : is its log2 fold change no less than 0.01?
Response: criterion met

Prompt: Entry `CN1CCc2c(c3ccccc3n2Cc2ccc(C(=O)NO)cc2)C1` : is its log2 fold change no less than 0.01?
Response: criterion met

Prompt: Entry `Cc1nc(Nc2n[nH]c3c2CN(C(=O)N[C@H](CN(C)C)c2ccccc2)C3(C)C)c2sccc2n1` : is its log2 fold change no less than 0.01?
Response: criterion not met

Prompt: Entry CN(CCOc1ccc(C[C@@H]2SC(=O)NC2=O)cc1)c1ccccn1 (racemic) : is its log2 fold change no less than 0.01?
Response: criterion met

Prompt: Entry `Cc1cc(Nc2cc(N3CCN(C)CC3)nc(Sc3ccc(NC(=O)C4CC4)cc3)n2)n[nH]1` : is its log2 fold change no less than 0.01?
Response: criterion not met

Prompt: Entry `Cc1ccc2c(=O)c3ccccc3n(CCCN)c2c1C` : is its log2 fold change no less than 0.01?
Response: criterion met

Prompt: Entry `CC(C)(O)CC(=O)NCCn1ccc2ncnc(Nc3ccc(Oc4cccc(C(F)(F)F)c4)c(Cl)c3)c21` : is its log2 fold change no less than 0.01?
Response: criterion met

Prompt: Entry `Cc1ccc(C(=O)N(CCCN)[C@@H](c2nc3cc(Cl)ccc3c(=O)n2Cc2ccccc2)C(C)C)cc1` : is its log2 fold change no less than 0.01?
Response: criterion not met
